Experimental Details: chemical genetic growth profiling, strain panel (AID 1159580);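 further: tested at 20 µM; growth read once vehicle control cultures reached saturation at 30 °C; 1 = growth at the plate median or of vehicle wells; lower values mean less growth of the strain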
Test Settings: S. cerevisiae deletion strains, growth OD, locus YIR030C, strain dcg1, active compounds read low
Out of some 5,500 compounds screened, about 2,000 (36%) were called active. Not shown: some 18% with an inconclusive outcome. Some of the results follow.
Measurement Name: normalized growth
Please respond with just the number, no unit label.

Molecule: CC[C@@]1(O)C[C@H](O)c2c(cc3c(c2O)C(=O)c2c(O)ccc(O)c2C3=O)[C@H]1C(=O)OC
Recorded Number: 0.908

Molecule: Cc1ccccc1C(OCCN(C)C)c1ccccc1 (stereo not given)
Recorded Number: 1.02

Molecule: COc1ccc2c(c1)OC1(O)COc3cc(OC)c(OC)cc3C1=C2 (stereo not given)
Recorded Number: 0.987

# input molecule: "COc1ccc(CN(CCN(C)C)c2ccccn2)cc1" ; wanted: its normalized growth
0.99

And what about the molecule CN1C2CCC1CC(OC(c1ccccc1)c1ccccc1)C2 (stereo not given) ?
0.986

Follow-up entry: "O=C1NCC2(CCN(CCc3ccccc3)CC2)O1"
0.994
